Data origin: ChEMBL document CHEMBL1134518

Biological target: Gastrin/cholecystokinin type B receptor (Rattus norvegicus)
Experiment: Inhibition of [3H]pCCK-8 specific binding cholecystokinin type B receptor in rat cerebral cortex membranes
pIC50: −log10 of the molar value.

>  <molecule>
CC(C)(C)OC(=O)N[C@@H](Cc1c[nH]c2ccccc12)C(=O)N[C@@H]1CCCN2C(=O)N(Cc3ccccc3)C(=O)C[C@@H]12

>  <pIC50>
< 5.00

$$$$
>  <molecule>
CN(C)c1cccc(N2C(=O)C[C@@H]3[C@@H](NC(=O)[C@H](Cc4c[nH]c5ccccc45)NC(=O)OC(C)(C)C)CCCN3C2=O)c1

>  <pIC50>
< 5.00

$$$$
>  <molecule>
CC(C)(C)OC(=O)N[C@@H](Cc1c[nH]c2ccccc12)C(=O)N[C@H]1CCCN2C(=O)N(C3CCCCC3)C(=O)C[C@H]12

>  <pIC50>
5.15

$$$$
>  <molecule>
CC(C)(C)OC(=O)N[C@@H](Cc1c[nH]c2ccccc12)C(=O)NC1CCCN2C(=O)N(c3cccc(C(=O)O)c3)C(=O)CC12 (stereo partly specified)

>  <pIC50>
< 5.00

$$$$
>  <molecule>
CC(C)(C)OC(=O)N[C@@H](Cc1c[nH]c2ccccc12)C(=O)N[C@H]1CCCN2C(=O)N(c3ccncc3)C(=O)C[C@H]12 (relative stereo)

>  <pIC50>
< 5.00

$$$$
>  <molecule>
Cc1ccccc1N1C(=O)C[C@H]2[C@H](NC(=O)[C@H](Cc3c[nH]c4ccccc34)NC(=O)OC(C)(C)C)CCCN2C1=O

>  <pIC50>
< 5.00

$$$$

---

# reported IC50; entries follow
Biological target: Gastrin/cholecystokinin type B receptor (Rattus norvegicus, UniProt P30553)
Sequence (P30553 whole entry): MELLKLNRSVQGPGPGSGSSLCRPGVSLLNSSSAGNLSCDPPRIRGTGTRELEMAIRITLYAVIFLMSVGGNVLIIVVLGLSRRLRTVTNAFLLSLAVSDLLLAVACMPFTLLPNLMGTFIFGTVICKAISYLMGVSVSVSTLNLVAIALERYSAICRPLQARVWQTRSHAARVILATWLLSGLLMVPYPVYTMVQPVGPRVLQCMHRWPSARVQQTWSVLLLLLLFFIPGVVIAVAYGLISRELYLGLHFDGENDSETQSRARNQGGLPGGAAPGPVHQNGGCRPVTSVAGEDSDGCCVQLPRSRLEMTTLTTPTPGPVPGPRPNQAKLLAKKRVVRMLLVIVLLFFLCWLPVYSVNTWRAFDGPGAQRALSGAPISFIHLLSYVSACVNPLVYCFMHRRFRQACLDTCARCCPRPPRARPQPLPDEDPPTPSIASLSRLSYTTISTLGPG
Test: Inhibition of [3H]pCCK-8 specific binding cholecystokinin type B receptor in rat cerebral cortex membranes
outcome-measure: IC50

>  <structure-notation>
Cc1cccc(N2C(=O)C[C@@H]3[C@@H](NC(=O)[C@H](Cc4c[nH]c5ccccc45)NC(=O)OC(C)(C)C)CCCN3C2=O)c1

>  <test-system>
Gastrin/cholecystokinin type B receptor (Rattus norvegicus, UniProt P30553)

>  <outcome-measure>
IC50

>  <test-value>
1.32 µM

$$$$
>  <structure-notation>
CC(C)(C)OC(=O)N[C@@H](Cc1c[nH]c2ccccc12)C(=O)N[C@@H]1CCCN2C(=O)N(c3cccc4ccccc34)C(=O)C[C@@H]12

>  <test-system>
Gastrin/cholecystokinin type B receptor (Rattus norvegicus, UniProt P30553)

>  <outcome-measure>
IC50

>  <test-value>
> 10 µM

$$$$
>  <structure-notation>
CC(C)(C)OC(=O)N[C@@H](Cc1c[nH]c2ccccc12)C(=O)N[C@@H]1CCCN2C(=O)N(c3ccccc3)C(=O)C[C@@H]12

>  <test-system>
Gastrin/cholecystokinin type B receptor (Rattus norvegicus, UniProt P30553)

>  <outcome-measure>
IC50

>  <test-value>
> 10 µM

$$$$
>  <structure-notation>
CC(C)(C)OC(=O)N[C@@H](Cc1c[nH]c2ccccc12)C(=O)N[C@H]1CCCN2C(=O)N(c3cccc4ccccc34)C(=O)C[C@H]12

>  <test-system>
Gastrin/cholecystokinin type B receptor (Rattus norvegicus, UniProt P30553)

>  <outcome-measure>
IC50

>  <test-value>
> 10 µM

$$$$
>  <structure-notation>
CC(C)(C)OC(=O)N[C@@H](Cc1c[nH]c2ccccc12)C(=O)N[C@H]1CCCN2C(=O)N(c3ccc([N+](=O)[O-])cc3)C(=O)C[C@H]12

>  <test-system>
Gastrin/cholecystokinin type B receptor (Rattus norvegicus, UniProt P30553)

>  <outcome-measure>
IC50

>  <test-value>
> 10 µM

$$$$
>  <structure-notation>
CC(C)(C)OC(=O)N[C@@H](Cc1c[nH]c2ccccc12)C(=O)N[C@@H]1CCCN2C(=O)N(c3cccc([N+](=O)[O-])c3)C(=O)C[C@@H]12

>  <test-system>
Gastrin/cholecystokinin type B receptor (Rattus norvegicus, UniProt P30553)

>  <outcome-measure>
IC50

>  <test-value>
> 10 µM

$$$$

---

So I've got IC50 readings for UniProt P30551, take a look.

>  <molecule>
CC(C)(C)OC(=O)N[C@@H](Cc1c[nH]c2ccccc12)C(=O)N[C@@H]1CCCN2C(=O)N(c3cccc([N+](=O)[O-])c3)C(=O)C[C@@H]12

>  <readout-relation>
=

>  <IC50 (nM)>
44

$$$$
>  <molecule>
CC(C)(C)OC(=O)N[C@@H](Cc1c[nH]c2ccccc12)C(=O)N[C@H]1CCCN2C(=O)N(c3ccccc3)C(=O)C[C@H]12

>  <readout-relation>
=

>  <IC50 (nM)>
628

$$$$
>  <molecule>
CC(C)(C)OC(=O)N[C@@H](Cc1c[nH]c2ccccc12)C(=O)N[C@H]1CCCN2C(=O)N(C3CCCCC3)C(=O)C[C@H]12

>  <readout-relation>
=

>  <IC50 (nM)>
165

$$$$
>  <molecule>
CC(C)(C)OC(=O)N[C@@H](Cc1c[nH]c2ccccc12)C(=O)NC1CCCN2C(=O)N(C(Cc3ccccc3)C(=O)O)C(=O)CC12 (some centres not stated)

>  <readout-relation>
>

>  <IC50 (nM)>
1000

$$$$
>  <molecule>
Cc1ccccc1N1C(=O)C[C@@H]2[C@@H](NC(=O)[C@H](Cc3c[nH]c4ccccc34)NC(=O)OC(C)(C)C)CCCN2C1=O

>  <readout-relation>
>

>  <IC50 (nM)>
1000

$$$$
>  <molecule>
Cc1ccc(N2C(=O)C[C@@H]3[C@@H](NC(=O)[C@H](Cc4c[nH]c5ccccc45)NC(=O)OC(C)(C)C)CCCN3C2=O)cc1

>  <readout-relation>
=

>  <IC50 (nM)>
200

$$$$
>  <molecule>
CC(C)(C)OC(=O)N[C@@H](Cc1c[nH]c2ccccc12)C(=O)N[C@H]1CCCN2C(=O)N(Cc3ccccc3)C(=O)C[C@H]12

>  <readout-relation>
=

>  <IC50 (nM)>
22.7

$$$$

---

# maps each entry to its IC50
Molecular target: Cholecystokinin receptor type A (Rattus norvegicus, UniProt P30551)
Sequence (P30551 whole entry): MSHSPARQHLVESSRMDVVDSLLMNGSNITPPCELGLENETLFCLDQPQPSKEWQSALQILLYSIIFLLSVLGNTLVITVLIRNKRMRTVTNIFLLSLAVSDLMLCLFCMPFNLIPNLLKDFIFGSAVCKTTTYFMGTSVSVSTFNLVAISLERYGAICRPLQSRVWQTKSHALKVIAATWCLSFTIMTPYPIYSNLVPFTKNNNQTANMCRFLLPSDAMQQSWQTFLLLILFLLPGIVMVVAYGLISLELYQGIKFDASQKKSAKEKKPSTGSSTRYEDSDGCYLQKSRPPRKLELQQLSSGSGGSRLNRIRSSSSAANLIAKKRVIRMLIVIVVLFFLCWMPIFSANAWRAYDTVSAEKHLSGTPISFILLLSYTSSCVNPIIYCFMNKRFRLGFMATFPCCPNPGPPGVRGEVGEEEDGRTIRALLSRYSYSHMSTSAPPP

>  <structure-notation>
CC(C)(C)OC(=O)N[C@@H](Cc1c[nH]c2ccccc12)C(=O)N[C@@H]1CCCN2C(=O)N(c3ccccc3)C(=O)C[C@@H]12

>  <test-system>
Cholecystokinin receptor type A (Rattus norvegicus, UniProt P30551)

>  <readout-relation>
=

>  <IC50 [nM]>
1.18

$$$$
>  <structure-notation>
CC(C)(C)OC(=O)N[C@@H](Cc1c[nH]c2ccccc12)C(=O)N[C@@H]1CCCN2C(=O)N(c3cccc4ccccc34)C(=O)C[C@@H]12

>  <test-system>
Cholecystokinin receptor type A (Rattus norvegicus, UniProt P30551)

>  <readout-relation>
=

>  <IC50 [nM]>
0.59

$$$$
>  <structure-notation>
CN(C)c1ccc(N2C(=O)C[C@@H]3[C@@H](NC(=O)[C@H](Cc4c[nH]c5ccccc45)NC(=O)OC(C)(C)C)CCCN3C2=O)cc1

>  <test-system>
Cholecystokinin receptor type A (Rattus norvegicus, UniProt P30551)

>  <readout-relation>
>

>  <IC50 [nM]>
1000

$$$$
>  <structure-notation>
C[C@H](c1ccccc1)N1C(=O)C[C@@H]2[C@@H](NC(=O)[C@H](Cc3c[nH]c4ccccc34)NC(=O)OC(C)(C)C)CCCN2C1=O

>  <test-system>
Cholecystokinin receptor type A (Rattus norvegicus, UniProt P30551)

>  <readout-relation>
>

>  <IC50 [nM]>
1000

$$$$
>  <structure-notation>
CC(C)(C)OC(=O)N[C@@H](Cc1c[nH]c2ccccc12)C(=O)N[C@@H]1CCCN2C(=O)N(C3CCCCC3)C(=O)C[C@@H]12

>  <test-system>
Cholecystokinin receptor type A (Rattus norvegicus, UniProt P30551)

>  <readout-relation>
=

>  <IC50 [nM]>
0.6

$$$$
>  <structure-notation>
Cc1ccc(N2C(=O)C[C@H]3[C@H](NC(=O)[C@H](Cc4c[nH]c5ccccc45)NC(=O)OC(C)(C)C)CCCN3C2=O)cc1

>  <test-system>
Cholecystokinin receptor type A (Rattus norvegicus, UniProt P30551)

>  <readout-relation>
=

>  <IC50 [nM]>
2.9

$$$$
>  <structure-notation>
C[C@@H](c1ccccc1)N1C(=O)C[C@@H]2[C@@H](NC(=O)[C@H](Cc3c[nH]c4ccccc34)NC(=O)OC(C)(C)C)CCCN2C1=O

>  <test-system>
Cholecystokinin receptor type A (Rattus norvegicus, UniProt P30551)

>  <readout-relation>
>

>  <IC50 [nM]>
1000

$$$$
>  <structure-notation>
CC(C)(C)OC(=O)N[C@@H](Cc1c[nH]c2ccccc12)C(=O)N[C@H]1CCCN2C(=O)N(c3cccc4ccccc34)C(=O)C[C@H]12

>  <test-system>
Cholecystokinin receptor type A (Rattus norvegicus, UniProt P30551)

>  <readout-relation>
>

>  <IC50 [nM]>
1000

$$$$
>  <structure-notation>
CSCC[C@H](NC(=O)[C@H](Cc1ccc(O)cc1)NC(=O)[C@@H](N)CC(=O)O)C(=O)NCC(=O)N[C@@H](Cc1c[nH]c2ccccc12)C(=O)N[C@@H](CCSC)C(=O)N[C@@H](CC(=O)O)C(=O)N[C@@H](Cc1ccccc1)C(N)=O

>  <test-system>
Cholecystokinin receptor type A (Rattus norvegicus, UniProt P30551)

>  <readout-relation>
=

>  <IC50 [nM]>
1.04

$$$$
>  <structure-notation>
C[C@@H](c1ccccc1)N1C(=O)C[C@H]2[C@H](NC(=O)[C@H](Cc3c[nH]c4ccccc34)NC(=O)OC(C)(C)C)CCCN2C1=O

>  <test-system>
Cholecystokinin receptor type A (Rattus norvegicus, UniProt P30551)

>  <readout-relation>
=

>  <IC50 [nM]>
6.89

$$$$
>  <structure-notation>
CCOC(=O)[C@H](Cc1ccccc1)N1C(=O)C[C@H]2[C@H](NC(=O)[C@H](Cc3c[nH]c4ccccc34)NC(=O)OC(C)(C)C)CCCN2C1=O

>  <test-system>
Cholecystokinin receptor type A (Rattus norvegicus, UniProt P30551)

>  <readout-relation>
>

>  <IC50 [nM]>
1000

$$$$
